Measured Final body weight change (%), listed per entry for reference.
System: human non-small cell lung cancer NCI-H1975
Method summary: Biological Example 7: in vivo xenograft model of human non-small cell lung cancer NCI-H1975
Design: species or system Balb/c-nu nude mice
Condition: nude mice, 0.8 mg/kg i.v. qw×3
Number only, in %; omit the unit.

Ask | I would be grateful if you could share the reported Final body weight change (%) for CC[C@H](C)[C@@H]([C@@H](CC(=O)N1CCC[C@H]1[C@H](OC)[C@@H](C)C(=O)N[C@H](C)[C@@H](O)c1ccccc1)OC)N(C)C(=O)[C@@H](NC(=O)[C@H](C(C)C)[N+](C)(C)Cc1ccc(O[C@@H]2O[C@H](C(=O)[O-])[C@@H](O)[C@H](O)[C@H]2O)cc1OCc1cn(CCCOCC(=O)Nc2ccc(-c3ccc(/N=N/c4ccc5c(S(=O)(=O)[O-])cc(S(=O)(=O)[O-])c(N)c5c4O)c(C)c3)cc2C)nn1)C(C)C.[Na+].[Na+] [Example compound 10] .
Reply | 10.2

Ask | Request the reported Final body weight change (%) associated with CC[C@H](C)[C@@H]([C@@H](CC(=O)N1CCC[C@H]1[C@H](OC)[C@@H](C)C(=O)N[C@H](C)[C@@H](O)c1ccccc1)OC)N(C)C(=O)[C@@H](NC(=O)[C@H](C(C)C)[N+](C)(CC)Cc1ccc(O[C@@H]2O[C@H](C(=O)[O-])[C@@H](O)[C@H](O)[C@H]2O)cc1OCc1cn(CCCOCC(=O)Nc2ccc(-c3ccc(/N=N/c4ccc5c(S(=O)(=O)[O-])cc(S(=O)(=O)[O-])c(N)c5c4O)c(C)c3)cc2C)nn1)C(C)C.[Na+].[Na+] (stereo partly drawn) [Example compound 11]
Reply | 6.7

Ask | Give the measured Final body weight change (%) of CC[C@H](C)[C@@H]([C@@H](CC(=O)N1CCC[C@H]1[C@H](OC)[C@@H](C)C(=O)N[C@H](C)[C@@H](O)c1ccccc1)OC)N(C)C(=O)[C@@H](NC(=O)[C@H](C(C)C)[N+](C)(C)Cc1ccc(O[C@@H]2O[C@H](C(=O)[O-])[C@@H](O)[C@H](O)[C@H]2O)cc1OCc1cn(CCOCCC(=O)Nc2ccc(-c3ccc(/N=N/c4ccc5c(S(=O)(=O)[O-])cc(S(=O)(=O)[O-])c(N)c5c4O)c(C)c3)cc2C)nn1)C(C)C.[Na+].[Na+] [Example compound 9] .
Reply | 8.8
